// data source = patent US9938222B2

subject of test: human GPR120 (Homo sapiens (Human))
Sequence (Q5NUL3 whole entry): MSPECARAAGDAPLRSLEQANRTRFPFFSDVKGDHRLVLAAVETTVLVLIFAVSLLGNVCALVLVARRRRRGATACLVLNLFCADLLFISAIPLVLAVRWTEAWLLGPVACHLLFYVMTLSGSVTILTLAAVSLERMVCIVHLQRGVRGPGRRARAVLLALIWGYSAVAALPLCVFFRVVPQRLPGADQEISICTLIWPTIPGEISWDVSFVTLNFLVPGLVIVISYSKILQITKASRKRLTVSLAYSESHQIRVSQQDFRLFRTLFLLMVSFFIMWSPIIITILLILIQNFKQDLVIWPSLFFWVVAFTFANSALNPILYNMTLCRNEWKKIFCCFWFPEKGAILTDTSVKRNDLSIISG
test details: GPR120 pERK AlphaScreen SureFire Assay (human GPR120 pERK assay)
experimental conditions: CHO cells stably transfected with short form of human GPR120
measured metric: EC50 (nM)

1) CC(C)Oc1ccc(F)c(-c2ccc(CC[C@H]3C[C@@H]3C(=O)O)cc2)c1 (single isomer, unassigned) [Example 32] | 990
2) CC(C)Oc1ccc(F)c(-c2ccc(CC[C@H]3C[C@]3(C)C(=O)O)cc2)c1 (racemic) [Example 41] | 860
3) CC(C)Oc1ccc(F)c(-c2ccc(C[C@@H]3C[C@H]3CC(=O)O)cc2)c1 (single isomer, unassigned) [Example 35] | 330
